system: PXR homodimer (NR concentration 270 nM); experiment: PBM binding z-score (relative to random genomic background probes); higher = stronger binding; sequences stand for … in GC…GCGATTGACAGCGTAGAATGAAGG
Label rule, in plain words: PBM binding z-score of 0.1 and up is 1 (yes), under 0.1 is 0 (no).

Sequence Entry	Class Label
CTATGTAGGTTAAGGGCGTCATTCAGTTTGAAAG	1 (yes)
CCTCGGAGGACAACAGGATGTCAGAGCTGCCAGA	0 (no)
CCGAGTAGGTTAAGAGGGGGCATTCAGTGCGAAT	1 (yes)
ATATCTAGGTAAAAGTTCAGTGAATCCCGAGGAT	1 (yes)
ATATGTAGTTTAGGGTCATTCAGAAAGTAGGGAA	1 (yes)
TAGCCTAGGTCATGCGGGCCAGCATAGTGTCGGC	0 (no)
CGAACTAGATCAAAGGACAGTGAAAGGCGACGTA	0 (no)
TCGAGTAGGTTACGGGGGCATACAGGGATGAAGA	1 (yes)
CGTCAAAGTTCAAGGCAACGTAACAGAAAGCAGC	1 (yes)
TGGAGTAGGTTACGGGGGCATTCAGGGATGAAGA	1 (yes)
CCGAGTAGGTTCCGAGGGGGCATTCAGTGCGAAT	1 (yes)
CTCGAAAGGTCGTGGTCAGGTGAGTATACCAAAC	1 (yes)
TTACAAAGGTGAAAGGTCGTTGATGCACGCCTTG	1 (yes)
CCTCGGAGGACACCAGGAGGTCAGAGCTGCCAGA	0 (no)
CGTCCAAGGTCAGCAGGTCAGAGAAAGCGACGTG	1 (yes)
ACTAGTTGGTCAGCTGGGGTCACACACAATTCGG	1 (yes)
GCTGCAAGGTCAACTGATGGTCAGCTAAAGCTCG	1 (yes)
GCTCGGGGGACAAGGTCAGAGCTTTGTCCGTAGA	1 (yes)
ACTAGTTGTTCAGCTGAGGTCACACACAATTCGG	1 (yes)
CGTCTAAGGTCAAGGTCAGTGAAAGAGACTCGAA	1 (yes)
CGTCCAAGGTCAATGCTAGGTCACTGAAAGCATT	1 (yes)
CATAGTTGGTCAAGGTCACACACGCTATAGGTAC	1 (yes)
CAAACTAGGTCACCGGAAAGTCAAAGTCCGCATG	0 (no)
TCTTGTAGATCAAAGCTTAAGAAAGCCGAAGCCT	0 (no)
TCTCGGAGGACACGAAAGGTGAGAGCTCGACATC	0 (no)
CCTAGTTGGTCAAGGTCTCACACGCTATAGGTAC	1 (yes)
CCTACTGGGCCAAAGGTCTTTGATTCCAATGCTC	0 (no)
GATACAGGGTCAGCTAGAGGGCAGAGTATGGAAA	1 (yes)
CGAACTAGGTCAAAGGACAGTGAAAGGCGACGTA	0 (no)
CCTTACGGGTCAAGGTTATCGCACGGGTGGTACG	1 (yes)
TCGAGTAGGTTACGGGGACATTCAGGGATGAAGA	0 (no)
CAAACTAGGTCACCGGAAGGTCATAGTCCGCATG	1 (yes)
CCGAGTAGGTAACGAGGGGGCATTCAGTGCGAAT	1 (yes)
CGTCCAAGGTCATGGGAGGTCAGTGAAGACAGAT	1 (yes)
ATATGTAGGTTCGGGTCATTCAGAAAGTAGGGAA	1 (yes)
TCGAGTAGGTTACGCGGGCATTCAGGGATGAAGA	0 (no)
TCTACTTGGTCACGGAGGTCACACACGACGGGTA	1 (yes)
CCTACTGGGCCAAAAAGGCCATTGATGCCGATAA	0 (no)
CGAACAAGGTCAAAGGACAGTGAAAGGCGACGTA	1 (yes)
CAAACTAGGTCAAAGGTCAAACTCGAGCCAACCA	1 (yes)
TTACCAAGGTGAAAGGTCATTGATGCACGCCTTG	1 (yes)
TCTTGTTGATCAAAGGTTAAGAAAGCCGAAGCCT	0 (no)
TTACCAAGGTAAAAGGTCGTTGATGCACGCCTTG	1 (yes)
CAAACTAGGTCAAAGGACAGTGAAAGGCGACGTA	1 (yes)
GCTGCTAGGTCAACTGATGGTCAGCTAGAGCTCG	0 (no)
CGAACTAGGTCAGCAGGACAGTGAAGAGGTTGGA	0 (no)
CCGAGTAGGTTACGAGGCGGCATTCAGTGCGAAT	0 (no)
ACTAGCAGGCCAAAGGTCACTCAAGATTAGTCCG	1 (yes)
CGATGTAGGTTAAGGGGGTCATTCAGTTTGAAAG	1 (yes)
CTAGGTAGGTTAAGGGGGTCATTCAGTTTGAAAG	1 (yes)
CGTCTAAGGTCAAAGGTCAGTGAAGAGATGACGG	1 (yes)

The reported numbers originate from the supplement of paper PMC6555819.
